# credit: patent US8835446B2

System: Rabbits
MEASUREMENT_SETUP: female, Kbs: JW, rabbit, in vivo, 24 h
QUANTITY_MEASURED: Simple primary skin irritation index
Answer with a bare number; do not write a unit.

Use the examples below as a reference point.
> print(dat)
                                   molecule  system.under.test  recorded.number
1  COCCNC(=O)c1nc(N[C@H]2CCCC[C@H]2NC(=N)COC)c2cc(C)ccc2n1.Cl.Cl [Example 91]            Rabbits              0.5
2  CCOCCNC(=O)c1nc(N[C@H]2CCCC[C@H]2NC(=N)CCO)c2cc(C)ccc2n1.Cl.Cl [Example 61]            Rabbits              0.4
3  COCCCNC(=O)c1nc(N[C@H]2CCCC[C@H]2NC(=N)COC)c2cc(C)ccc2n1.Cl.Cl [Example 93]            Rabbits              0.2
4  COCCCNC(=O)c1nc(N[C@H]2CCCC[C@H]2NC(=N)CCO)c2cc(C)ccc2n1.Cl.Cl [Example 59]            Rabbits              0.2

Please find the next molecule below.
Request: Quick one: give measured Simple primary skin irritation index for CC(=N)N[C@@H]1CCCC[C@@H]1Nc1nc(C(=O)NC(C)C)nc2ccc(C)cc12.Cl.Cl [Example 101]
Result: 2.6
